Test: qHTS assay to identify small molecule agonists of the sonic hedgehog signaling (Shh) pathway - cell viability counter screen (AID 1259366); note: nearly all actives have a fitted effect of over 50% in size
Settings: NIH/3T3 Gli1-Luc viability, CellTiter-Fluor, 24 h; series mostly up to 92.4 µM
Description: National Center for Advancing Translational Sciences [NCATS] NIH Chemical Genomics Center [NCGC] U.S. Environmental Protection Agency [EPA] National Institutes of Environmental Health Sciences [NIEHS] National Toxicology Program [NTP] U.S. Food and Drug Administration [FDA] The sonic hedgehog (Shh) pathway is essential for normal embryonic development. Dysregulation of the Shh pathway can cause severe developmental defects in organs. […]
Records with an inconclusive call do not appear. Activity calls are given as the source filed them. Calls come from the whole dose curve; as a rule, active = well fitted cell-killing curve with a large enough effect in the repeat runs; inconclusive = weak or mixed curves, or effect the other way; inactive = flat fitted curve, though single readings scatter.
Possible outcomes: active, inactive

compound	labelValue
S=C=Nc1cccc2ccccc12	active
CSCCCN=C=S	inactive
O=C(O)c1cc[c]([Hg][Cl])cc1	active
Nc1ccc(Sc2ccc(N)cc2)cc1	inactive
CC(C)CC(C)Nc1ccc(Nc2ccccc2)cc1 (stereo unspecified)	active
C[C@@H]1O[C@@H](O[C@H]2C[C@@H](O)[C@]3(CO)[C@H]4[C@H](O)C[C@]5(C)[C@@H](C6=CC(=O)OC6)CC[C@]5(O)[C@@H]4CC[C@]3(O)C2)[C@H](O)[C@H](O)[C@H]1O	inactive
Cn1[nH]nnc1=S	inactive
CC1(C)CN=C(NN=C(/C=C/c2ccc(C(F)(F)F)cc2)/C=C/c2ccc(C(F)(F)F)cc2)NC1	active
N#CCCO	inactive
C[C@H]1O[C@@H](O[C@H]2[C@@H](O)C[C@H](O[C@H]3[C@@H](O)C[C@H](O[C@H]4CC[C@@]5(C)[C@H](CC[C@@H]6[C@@H]5CC[C@]5(C)[C@@H](C7=CC(=O)OC7)CC[C@]65O)C4)O[C@@H]3C)O[C@@H]2C)C[C@H](O)[C@@H]1O	inactive
CCOC(=O)C1(c2ccccc2)CCN(CCC(C#N)(c2ccccc2)c2ccccc2)CC1	inactive
BrCBr	inactive
CC1(C)CC/C(=C/c2ccc(Cl)cc2)C1(O)Cn1cncn1 (stereo unspecified)	active
COC12CC[C@@]3(C[C@@H]1C(C)(O)C(C)(C)C)[C@H]1Cc4ccc(O)c5c4[C@@]3(CCN1CC1CC1)[C@H]2O5 (stereo partly specified)	active
CC(C)(C)c1ccc(CSc2cnn(C(C)(C)C)c(=O)c2Cl)cc1	inactive
Oc1c(Br)c(Br)c(Br)c(Br)c1Br	inactive
CCCCCCCCCCCCCC[P+](CCCCCC)(CCCCCC)CCCCCC (tested in a mixture with another compound)	active
O=[N+]([O-])c1ccc2ccc3cccc4ccc1c2c34	inactive
O=[N+]([O-])O.O=[N+]([O-])O.[Cd]	active
O=C(CCl)C(Cl)Cl	active
ClC(Cl)=C(Cl)Cl	inactive
CC(=O)[O-].CC(=O)[O-].[Hg+2]	active
CC(=O)C(Cl)(Cl)Cl	active
CCOC(=O)c1ccccc1S(=O)(=O)NC(=O)Nc1nc(Cl)cc(OC)n1	inactive
CC(Cc1ccc(C(C)(C)C)cc1)CN1C[C@@H](C)O[C@@H](C)C1 (stereo partly specified)	inactive
CN(C)c1ccc(N=Nc2ccccc2)cc1	active
